target: Vascular endothelial growth factor receptor 2 (Homo sapiens, UniProt P35968); test: Inhibition of recombinant VEGFR2 kinase domain (unknown origin)
Sequence (P35968 whole entry, the tested form may be a part): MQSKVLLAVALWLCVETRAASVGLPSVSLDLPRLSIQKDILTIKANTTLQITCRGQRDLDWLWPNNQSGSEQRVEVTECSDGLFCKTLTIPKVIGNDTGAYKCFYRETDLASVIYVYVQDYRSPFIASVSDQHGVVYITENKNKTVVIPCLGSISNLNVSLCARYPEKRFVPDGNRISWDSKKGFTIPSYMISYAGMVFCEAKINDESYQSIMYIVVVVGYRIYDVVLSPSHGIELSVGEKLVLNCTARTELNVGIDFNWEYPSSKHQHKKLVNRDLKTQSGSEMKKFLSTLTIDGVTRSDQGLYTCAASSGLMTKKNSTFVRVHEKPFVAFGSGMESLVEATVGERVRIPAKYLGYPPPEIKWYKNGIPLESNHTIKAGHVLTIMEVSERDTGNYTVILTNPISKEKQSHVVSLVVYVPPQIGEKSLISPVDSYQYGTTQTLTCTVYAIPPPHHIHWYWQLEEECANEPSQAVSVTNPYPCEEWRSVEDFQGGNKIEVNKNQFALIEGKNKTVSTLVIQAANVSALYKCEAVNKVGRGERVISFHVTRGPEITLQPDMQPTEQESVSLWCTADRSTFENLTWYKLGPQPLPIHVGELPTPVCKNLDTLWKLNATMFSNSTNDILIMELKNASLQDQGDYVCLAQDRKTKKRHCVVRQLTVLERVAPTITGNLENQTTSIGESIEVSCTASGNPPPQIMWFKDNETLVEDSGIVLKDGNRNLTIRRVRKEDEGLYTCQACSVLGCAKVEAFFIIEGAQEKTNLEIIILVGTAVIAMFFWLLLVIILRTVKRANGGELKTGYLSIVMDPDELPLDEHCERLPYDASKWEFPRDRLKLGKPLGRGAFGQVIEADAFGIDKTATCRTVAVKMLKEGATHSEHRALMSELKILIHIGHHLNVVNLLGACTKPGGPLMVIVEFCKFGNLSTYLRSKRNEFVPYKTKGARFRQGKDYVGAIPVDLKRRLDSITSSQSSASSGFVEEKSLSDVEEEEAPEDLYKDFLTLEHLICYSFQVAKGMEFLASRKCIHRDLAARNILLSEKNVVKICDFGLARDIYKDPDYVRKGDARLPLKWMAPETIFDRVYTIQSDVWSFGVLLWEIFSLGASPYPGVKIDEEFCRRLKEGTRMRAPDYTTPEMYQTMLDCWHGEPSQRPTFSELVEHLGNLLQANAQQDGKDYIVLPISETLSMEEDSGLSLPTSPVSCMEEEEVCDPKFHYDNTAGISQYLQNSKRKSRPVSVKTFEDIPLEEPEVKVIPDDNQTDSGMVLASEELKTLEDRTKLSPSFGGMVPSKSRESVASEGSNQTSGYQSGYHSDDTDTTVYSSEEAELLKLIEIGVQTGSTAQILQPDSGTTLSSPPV
pIC50: −log10 of the molar value.
Assay Endpoint: pIC50

1. COCCOc1cc2ncnc(Oc3ccc(Nc4nccc5[nH]cc(-c6ccc(F)cc6)c(=O)c45)cc3F)c2cc1OC
2. COc1cc2ncnc(Oc3ccc(Nc4nccc5[nH]cc(-c6ccc(F)cc6)c(=O)c45)cc3F)c2cc1OCCO.Cc1ccc(S(=O)(=O)O)cc1
Could you kindly indicate whether 1 or 2 has the higher pIC50 value? # reply format: chosen label
2
(2: 7.91, 1: 6.85)

a. CCN(CC)CCCOc1cc2c(Oc3ccc(Nc4nccc5[nH]cc(-c6ccc(F)cc6)c(=O)c45)cc3F)ncnc2cc1OC
b. COc1cc2ncnc(Oc3ccc(Nc4nccc5[nH]c(C)c(-c6ccc(F)cc6)c(=O)c45)cc3F)c2cc1OC
Lab note: check whether a or b has the lower measured pIC50. # reply format: chosen label
b

I. COc1cc2ncnc(Oc3ccc(Nc4nccc5[nH]cc(-c6ccc(F)cc6)c(=O)c45)cc3F)c2cc1OCCCN1CCOCC1
II. COc1cc2c(Oc3ccc(Nc4nccc5[nH]cc(-c6ccc(F)cc6)c(=O)c45)cc3F)ncnc2cc1OCC1CCN(C)CC1
Could you kindly indicate whether I or II has the higher pIC50 value? # reply format: chosen label
II
